- assayedTarget: HLA-B*07:02
- protocolNotes: IEDB peptide-MHC binding, purified MHC/competitive/radioactivity; filed as Kd, often an IC50 or EC50 that approximates it; bounds were set here for any values at or beyond the usual limits of such assays
- measurementSetup: source organism: Dengue virus 3 Martinique/1243/1999
pKd: −log10 of the molar value.
propertyName: pKd

> print(dat)
   monomersequence  propertyname  numericvalue
1       FPYSIPATLL           pKd          7.55

====

- assayedTarget: HLA-B*15:09
- protocolNotes: IEDB peptide-MHC binding, purified MHC/direct/fluorescence; filed as Kd, often an IC50 or EC50 that approximates it; bounds were set here for any values at or beyond the usual limits of such assays
- measurementSetup: source organism: Listeria monocytogenes serotype 4b str. H7858
propertyName: Kd

> print(dat)
   monomersequence   result
1        YDAHHRFIL  ≥ 20 µM

Ref: the Immune Epitope Database (IEDB)
